Assay: Selectivity index, ratio of CC50 for human HuH7 cells to EC50 for Dengue virus 2 EDEN 3295 infected in human HuH7 cells
Type: toxicity, cell-based
Conditions: read-out: Ratio CC50/EC50
Here, each record is paired with measured selectivity ratio data.

Completed entries (count: 3):
O=C(N[C@@H](Cc1cccc(O)c1)C(=O)O)c1cc(-c2ccccc2)c(=O)n2c1sc1ccc(OC3CCCCC3)cc12
> 30
O=C(NCc1ccc(O)cc1)c1cc(-c2ccccc2)c(=O)n2c1sc1ccc(OC3CCCCC3)cc12
> 50
O=C(N[C@@H](Cc1ccc(O)cc1)C(=O)O)c1cc(-c2ccccc2)c(=O)n2c1sc1ccc(OC3CCCCC3)cc12
> 50

-- ask Query selectivity ratio for O=C(O)CCNC(=O)c1cc(-c2ccccc2)c(=O)n2c1sc1ccc(OC3CCCCC3)cc12
-- reply > 30

* * *

Tested on: dengue virus type 2
Assay: Inhibition of Dengue virus NS5 RNA-dependent RNA polymerase assessed as reduction in elongation activity at 30 uM incubated for 1 hr relative to control
quantityKind: inhibition (%)
Kindly provide the numeric value in % only, without the unit symbol.

Completed entries (count: 3):
O=C(N[C@@H](Cc1ccc(O)cc1)C(=O)O)c1cc(-c2ccccc2)c(=O)n2c1sc1ccc(OC3CCCCCC3)cc12
92.1
O=C(NCc1ccccc1)c1cc(-c2ccccc2)c(=O)n2c1sc1ccc(OC3CCCCC3)cc12
31.2
O=C(N[C@@H](Cc1cccc(O)c1)C(=O)O)c1cc(-c2ccccc2)c(=O)n2c1sc1ccc(OC3CCCCC3)cc12
94.1

Please examine the following record next.
-- ask Query inhibition for O=C(N[C@@H](Cc1ccc(O)cc1)C(=O)O)c1cc(-c2ccccc2)c(=O)n2c1sc1ccc(OC3CCCCC3)cc12
-- reply 93
